# target-or-test-system: T1, GST-IL-33 (mature form of interleukin 33, residues 112-270) (human, UniProt O95760)
# T1 construct: Interleukin-33, human, mature form / IL-1-like cytokine domain, residues 112-270; Synthesised gene in the parallel GST-2 vector; also called GST-IL-33 WT; GST-IL-33_(112)-270; source: E. coli BL21 (DE3), purified (Glutathione Sepharose 4B); not shown: GST, N-terminal, kept
# T1 sequence (O95760 112-270): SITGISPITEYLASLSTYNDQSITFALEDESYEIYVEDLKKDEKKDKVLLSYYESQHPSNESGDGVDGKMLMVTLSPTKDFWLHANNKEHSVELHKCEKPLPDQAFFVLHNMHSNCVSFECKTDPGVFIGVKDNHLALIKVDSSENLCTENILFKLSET
# test-method-notes: ELISA; E. coli cell lysates containing overexpressed His6-tagged scFvs against GST-IL-33; the text says ELISA, the legend 'kinetic analysis'; the methods tell of lysates only for BLI (BLItz; lysate scFv on Ni-NTA biosensors, GST-IL-33 at 2, 1, 0.5 and 0.25 uM, Kd = koff/kon)
# run-parameters: one partner purified
I'd be grateful if you could share measured pKd for these entries.
Numbers only, as −log10 of the molar value.

binder | observable | result-value
C2_2A10 (scFv, V domains shown, selected from a synthetic human scFv library by phage display; also called anti-IL-33 scFv clone C2_2A10; source: E. coli BL21 (DE3), in cell lysate; purified (Ni-NTA, SEC)) VH: EVQLLESGGGLVQPGGSLRLSCAASGFTFSSYYMSWVRQAPGKGLEWVSAISPGSSNKYYADSVKGRFTISRDNSKNTLYLQMNSLGAEDTAVYYCAKLLTGFDYWGQGTLVTVSS VL: QSVLTQPPSASGTPGQRVTISCSGSSSNIGNNAVSWYQQLPGTAPKLLIYDDNHRPSGVPDRFSGSKSGTSASLAISGLRSEDEADYYCGTWDSSLSAYVFGGGTKLTVL | pKd | 7.24
C1_1E1 (scFv, V domains shown, selected from a synthetic human scFv library by phage display; also called anti-IL-33 scFv clone C1_1E1; source: E. coli BL21 (DE3), in cell lysate; purified (Ni-NTA, SEC)) VH: EVQLLESGGGLVQPGGSLRLSCAASGFTFSSYYMSWVRQAPGKGLEWVSAISPGSSNKYYADSVKGRFTISRDNSKNTLYLQMNSLRAEDTAVYYCAKLTSAFDYWGQGTLVTVSS VL: QSVLTQPPSASGTPGQRVTISCTGSSSNIGSNDVTWYQQLPGTAPKLLIYSDNKRPSGVPDRFSGSKSGTSASLAISGLRSEEEADYYCGAWDSSLSGYVFGGGTKLTVL | pKd | 7.32

Pending binder:
pKd lookup needed for C2_2H5 (scFv, V domains shown, selected from a synthetic human scFv library by phage display; also called anti-IL-33 scFv clone C2_2H5; source: E. coli BL21 (DE3), in cell lysate; purified (Ni-NTA, SEC)) VH: EVQLLESGGGLVQPGGSLRLSCAASGFTFSSYYMSWVRQAPGKGLEWVSAISPGSSNKYYADSVKGQFTISRDNSKNTLYLQMNSLRAEDTAVYYCAKLSQSFDYWGQGTLVTVSS VL: QSVLTQPPSASGTPGQRVTISCTGSSSNIGNNGISWYQQLPGTAPKLLIYDNSHRPSGVPDRFSGSKSGTSASLAISGLRSEDETDYYCASWDSSLSGYVFGGGTKLTVL , thanks. 7.51
